Collected IC50 values appear next to each entry.
EXPERIMENTAL SYSTEM: JAK1 (Homo sapiens, UniProt P23458)
Construct: 5 μl of catalytic domain recombinant Kinase enzyme+Tyr peptide substrate (Invitrogen, CA); purchased Invitrogen
Sequence (P23458 875-1153 limits assumed): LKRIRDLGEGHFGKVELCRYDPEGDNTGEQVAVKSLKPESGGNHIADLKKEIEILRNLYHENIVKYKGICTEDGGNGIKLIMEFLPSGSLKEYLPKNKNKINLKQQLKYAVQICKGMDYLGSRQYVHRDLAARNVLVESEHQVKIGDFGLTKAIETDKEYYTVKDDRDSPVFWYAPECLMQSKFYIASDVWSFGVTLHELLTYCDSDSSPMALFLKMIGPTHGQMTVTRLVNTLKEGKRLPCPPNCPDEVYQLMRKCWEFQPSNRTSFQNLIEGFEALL
ASSAY: Z'-LYTE kinase assay JAK1
Assay type: biochemical

Take a look at these entries with their results.
Entry CS(=O)(=O)c1ccc(Nc2cc(NCc3cccc(-c4cccnc4)c3)c(C(N)=O)cn2)cc1 ; assay system JAK1 (Homo sapiens, UniProt P23458); IC50 recorded at > 1000 nM

NC(=O)c1cnc(Nc2ccc(OCCN3CCOCC3)cc2)cc1NCc1ccccc1 tested on JAK1 (Homo sapiens, UniProt P23458) gave IC50: 100 to 1000 nM

The molecule COCC(=O)N1CCC(c2ccc(Nc3cc(NCc4ccccc4F)c(C(N)=O)cn3)cc2)CC1 on JAK1 (Homo sapiens, UniProt P23458): IC50 was 100 to 1000 nM

// returns IC50 for NC(=O)c1cnc(Nc2ccc(N3CCOCC3)cc2)cc1Nc1ccc(N2CCOCC2)cc1 with JAK1 (Homo sapiens, UniProt P23458); value = > 1000 nM

Summary: NC(=O)c1cc(F)c(Nc2cccc(-n3nccn3)c2)nc1NC1CCCC1 , JAK1 (Homo sapiens, UniProt P23458), IC50 = > 1000 nM

Next molecule, IC50 to be filled in.
// returns IC50 for Cc1cc(Nc2cc(NCc3ccccc3)c(C(N)=O)cn2)ccc1C(=O)NCCO with JAK1 (Homo sapiens, UniProt P23458); value = 100 to 1000 nM
